All figures here come from ChEMBL document CHEMBL1150488.

- Test system: Staphylococcus aureus
- method.notes: Tested for zone of inhibition against Staphylococcus aureus UC6685 (1 mg/mL, 80 microL/6.5 mm)
- Format: functional
Below, each entry is listed alongside its reported Diameter of inhibition zone.
parameter: Diameter of inhibition zone (mm)

[[record]]
compound_smiles = "CCCC(=O)N1C[C@H]([C@@H](C)COC(C)=O)C1=O"
readout_number = 0

[[record]]
compound_smiles = "CC(=O)OC/C(C)=C1\\CN(C(C)=O)C1=O"
readout_number = 0

[[record]]
compound_smiles = "CCCCCC(=O)N1C[C@H]([C@H](C)COC(C)=O)C1=O"
readout_number = 9

[[record]]
compound_smiles = "CCCCCC(=O)OC[C@@H](C)[C@H]1CN(C(=O)CCCCC)C1=O"
readout_number = 24

[[record]]
compound_smiles = "CCCC(=O)N1C/C(=C(\\C)COC(C)=O)C1=O"
readout_number = 8

